B1: CPEB3 Ribozyme (parent)
chain: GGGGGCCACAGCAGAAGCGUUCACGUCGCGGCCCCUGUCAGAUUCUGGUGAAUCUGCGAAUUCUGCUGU

variants of: B1; experiment: self-cleavage, relative activity (ratio to wild type); higher = more cleavage; co-transcriptional
Entries and their self-cleavage values follow.
Simply state the number, no unit and no words.

Below: 10 variants and their reported self-cleavage.
1. GAGGGCCACAGCAGAAGCGUUCACGUCGCGCCCCCUGUCAGAUUCUGGUGAAUCUGCGAAUUCUGCUGU = 0.0358
2. GGGGGCCACAGCAGAAGCGUUCACGUCGCGGCCCCGGUCUGAUUCUGGUGAAUCUGCGAAUUCUGCUGU = 0.259
3. GGAGGCCACAGCAGAAGCGUUCACGUCGCGGCCCCUGUCAGAUUCUGGUGAAUCUCCGAAUUCUGCUGU = 0.253
4. GGGGGCCAAAGCAGAAGCGUUCACGUCGCGGCCCCUGACAGAUUCUGGUGAAUCUGCGAAUUCUGCUGU = 0.989
5. GGGGGCCACAGCAGAAGCGUUCACGACGCGGCCACUGUCAGAUUCUGGUGAAUCUGCGAAUUCUGCUGU = 0.436
6. GGGGGCCAGAGCAGAAGCGUUCACGUCGCGGCCCCUGUCAGAUUCUGGUGAAUCAGCGAAUUCUGCUGU = 0.929
7. GGGGGCCACAGCAGAAGCGUUCACGUCGGGGCCCCUGUCAGAUUCUGGUGGAUCUGCGAAUUCUGCUGU = 0.541
8. GGGGGCCACAGCAGAAGCGUUCACGUCGCGGCCCCUGUCAGAUUCUGCUGAAUCUGCGAAAUCUGCUGU = 0.962
9. GGGGGCCACAGCAGAAGCGUUCACGUCGCGGCCCCUGUCAGAUUCUGGUGAAUCCGCGAAUACUGCUGU = 0.445
10. GGGGGCCACAGCAGAAGCGUUCACGUCGCGGCCCCUGUCAGAUUCUGGUGAAUUUGCGAAUUCUUCUGU = 0.809

Lab book: self-cleavage of GAGGGCCACAGCAGAAGCCUUCACGUCGCGGCCCCUGUCAGAUUCUGGUGAAUCUGCGAAUUCUGCUGU noted as 0.0616

Lab book: self-cleavage of GGGGGCCACAGCAGAAGCGUUCACGUCGCGGCCCCUGCCAGAUUCUGGUGAAUCUGCGAAUUGUGCUGU noted as 0.693

Lab book: self-cleavage of GGGGGCCACAGCAGAAGCGUUCACGUCGCGGCCCCUGUCAGAUUCUGGUGAAUCUGCGAAUUCGUCUGU noted as 0.672

Lab book: self-cleavage of GGGGGCCACAGCAGAAGCGUUCACGUCGCGGCCGCUGUCAGAUUCUGGUAAAUCUGCGAAUUCUGCUGU noted as 0.707
